- Experiment description: pKA value was determined; Experiment 2
- Format: physicochemical
Please enter satisfied where pKa is greater than or equal to 10, and not satisfied where it is lower.

Answered examples (6):
Assess whether reported pKa for O=C(O)[C@H]1CNC[C@@H](O)C1 sits at 10 or higher. not satisfied

Check this compound for pKa at or above 10: CC(=O)N[C@@H]1CNC[C@H](C(=O)O)C1 not satisfied

Is reported pKa greater than or equal to 10 here: O=C(O)C1CCCNC1 (stereo not given) satisfied

I'd appreciate it if you could say whether O=C(O)C1CCNCC1 has pKa at least equal to 10. satisfied

Quick check, pKa >= 10? O=C(O)[C@@H]1CCNC[C@H]1O not satisfied

I'd appreciate it if you could say whether NCCCC(=O)O has pKa at least equal to 10. satisfied

More entries:
Please check the record CC(=O)N[C@@H]1CCNC[C@@H]1C(=O)O and state if its pKa is at or above 10. not satisfied

Reported pKa reaches at least 10 for O=C(O)[C@H]1CNCC[C@@H]1O ? not satisfied

----------
- Tested on: GABA-A receptor; anion channel
- Experiment description: Inhibition of [3H]GABA binding to Gamma-aminobutyric acid receptor of rat brain synaptosomal membranes
pIC50: −log10 of the molar value.
Metric: pIC50

Lab request: please report pIC50 under test system GABA-A receptor; anion channel for O=C(O)[C@@H]1CCNC[C@@H]1O 4.92

Fill in the recorded pIC50 for this molecule, with GABA-A receptor; anion channel as test system: O=C(O)[C@H]1CNCC[C@H]1O < 4.00

For the record O=C(O)C1CCNCC1 [ISONIPECOTIC ACID] , what value of pIC50 is listed for GABA-A receptor; anion channel? 6.48

Consider now this further molecule.
For GABA-A receptor; anion channel, provide pIC50 of CC(=O)N[C@@H]1CCNC[C@@H]1C(=O)O please. < 4.00

----------
Measured pKa values are reported for all entries that follow.
- Experiment description: pKA value was determined; Experiment 1
- Type: physicochemical
Lab note: jot the number down without any unit.

Look up pKa for this compound: O=C(O)[C@H]1CNCC[C@H]1O 3.4

Requested field: pKa. Item: CC(=O)N[C@@H]1CCNC[C@@H]1C(=O)O 3.2

Given the entry O=C(O)[C@H]1CNCC[C@@H]1O , report its measured pKa. 3.1

So what's the measured pKa for this one? O=C(O)C1CCCNC1 (stereo not given) 3.9

Can you share its pKa? I mean this compound: CC(=O)N[C@@H]1CNC[C@H](C(=O)O)C1 3

Need pKa, item O=C(O)[C@@H]1CCNC[C@H]1O 3.6

Quick check: pKa of O=C(O)[C@@H]1CCNC[C@@H]1O ? 3.7

Need pKa, item NCCCC(=O)O 4

Continuing:
For O=C(O)C1CCNCC1 , what is its reported pKa? 3.8

GET /values?readout=pKa&item= O=C(O)[C@H]1CNC[C@@H](O)C1 3.5

----------
- Tested on: GABA transporter (Rattus norvegicus, UniProt P31647+P23978+P31646+P48056)
- Experiment description: Inhibition of high affinity neuronal GABA uptake by synaptosomes of rat brain membrane
- Type: functional, subcellular
Metric: IC50 (µM)
Field: numeric (µM). Do not append units.

API: value(readout=IC50, system=GABA transporter (Rattus norvegicus, UniProt P31647+P23978+P31646+P48056)) for record O=C(O)[C@H]1CNC[C@@H](O)C1 173

New cases:
IC50 of O=C(O)[C@H]1CNCC[C@@H]1O on GABA transporter (Rattus norvegicus, UniProt P31647+P23978+P31646+P48056)? 203

Notebook: pull reported IC50 for GABA transporter (Rattus norvegicus, UniProt P31647+P23978+P31646+P48056), entry O=C(O)[C@H]1CNCC[C@H]1O 11

Requested read-out IC50, target or system GABA transporter (Rattus norvegicus, UniProt P31647+P23978+P31646+P48056), entry CC(=O)N[C@@H]1CNC[C@H](C(=O)O)C1 240
